# Tested on: HCT-116
# assay: Cytotoxicity against human HCT116 cells assessed as growth inhibition at 50 uM by colorimetric sulphorhodamine B assay
# Format: functional
# conditionSummary: read-out: GI
assayReadout: inhibition of growth at 50 µM (%)
Express the result in % but write the number alone.

Answered cases to consult:
* CC1=C2C[C@H]3O[C@@]3(C)[C@@H]2[C@H]2OC(=O)[C@@H](CNCc3cn(-c4ccccc4)nn3)[C@@H]2CC1 | 58
* C=C1C(=O)O[C@H]2[C@H]1CCC(C)=C1C[C@H]3O[C@@]3(C)[C@@H]12 | 97
* CC1=C2C[C@H]3O[C@@]3(C)[C@@H]2[C@H]2OC(=O)[C@@H](CNCc3cn(-c4ccc(F)cc4F)nn3)[C@@H]2CC1 | 0
* CC1=C2C[C@H]3O[C@@]3(C)[C@@H]2[C@H]2OC(=O)[C@@H](CNCc3cn(-c4ccccc4[N+](=O)[O-])nn3)[C@@H]2CC1 | 0
* COc1cccc(-n2cc(CNC[C@@H]3C(=O)O[C@H]4[C@H]3CCC(C)=C3C[C@H]5O[C@@]5(C)[C@@H]34)nn2)c1 | 0
* CC1=C2C[C@H]3O[C@@]3(C)[C@@H]2[C@H]2OC(=O)[C@@H](CNCc3cn(-c4ccccc4Cl)nn3)[C@@H]2CC1 | 6

Sample "CC1=C2C[C@H]3O[C@@]3(C)[C@@H]2[C@H]2OC(=O)[C@@H](CNCc3cn(-c4cccc5ccccc45)nn3)[C@@H]2CC1" — what was its inhibition of growth at 50 µM?
48

Sample "CC1=C2C[C@H]3O[C@@]3(C)[C@@H]2[C@H]2OC(=O)[C@@H](CNCc3cn(-c4cc(Cl)c(Cl)cc4Cl)nn3)[C@@H]2CC1" — what was its inhibition of growth at 50 µM?
74

Sample "COc1ccccc1-n1cc(CNC[C@@H]2C(=O)O[C@H]3[C@H]2CCC(C)=C2C[C@H]4O[C@@]4(C)[C@@H]23)nn1" — what was its inhibition of growth at 50 µM?
38

Sample "CC1=C2C[C@H]3O[C@@]3(C)[C@@H]2[C@H]2OC(=O)[C@@H](CNCc3cn(-c4cccc(CO)c4)nn3)[C@@H]2CC1" — what was its inhibition of growth at 50 µM?
11

Sample "CC1=C2C[C@H]3O[C@@]3(C)[C@@H]2[C@H]2OC(=O)[C@@H](CNCc3cn(-c4ccc(C)c(C)c4)nn3)[C@@H]2CC1" — what was its inhibition of growth at 50 µM?
49

Sample "CC1=C2C[C@H]3O[C@@]3(C)[C@@H]2[C@H]2OC(=O)[C@@H](CNCc3cn(-c4ccc([N+](=O)[O-])cc4)nn3)[C@@H]2CC1" — what was its inhibition of growth at 50 µM?
0
